- TARGET OF ASSAY: T1, Legionella pneumophila acetyl-polyamine aminohydrolase (Legionella pneumophila)
- T1 sequence: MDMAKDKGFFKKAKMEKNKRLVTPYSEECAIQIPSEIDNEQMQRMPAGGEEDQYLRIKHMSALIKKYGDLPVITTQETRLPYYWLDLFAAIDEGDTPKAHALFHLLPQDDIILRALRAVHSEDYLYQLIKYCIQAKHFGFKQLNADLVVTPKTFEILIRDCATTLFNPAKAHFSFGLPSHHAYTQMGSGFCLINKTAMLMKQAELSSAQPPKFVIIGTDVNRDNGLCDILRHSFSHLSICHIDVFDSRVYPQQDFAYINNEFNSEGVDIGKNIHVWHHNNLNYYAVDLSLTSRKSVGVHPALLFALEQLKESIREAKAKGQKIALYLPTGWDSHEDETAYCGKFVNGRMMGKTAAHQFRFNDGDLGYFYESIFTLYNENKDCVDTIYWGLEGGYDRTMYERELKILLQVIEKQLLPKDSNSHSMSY
- METHOD SUMMARY: enzyme kinetics with substrate inhibition (Fluor-de-Lys assay)
QUANTITY KIND: Ki (µM)
Report the value in µM with no unit label.

Exercise: Using the record for QPKK [p53-peptide QPKKac] , report its Ki.
Solution: 44
